Data provenance is patent US20100092385A1.

molecular target: synthetic Aβ 1-40 (Homo sapiens, UniProt P05067)
Sequence (P05067 672-711 limits assumed): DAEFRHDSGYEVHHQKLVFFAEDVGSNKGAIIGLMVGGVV
pIC50: −log10 of the molar value.
Please mark t if the recorded pIC50 is equal to or greater than 6, and f if it falls below.

Before answering, review these 5 worked examples.
• COc1ccc2nc(-c3ccc(N(C)C)nc3)cn2c1 = t
• CN(C)c1ccc(-c2cn3cc(O)ccc3n2)cn1 = t
• CNc1ccc(-c2cn3cc(OC)ccc3n2)cn1 = f
• COc1ccc2nc(-c3ccc4[nH]ccc4c3)cn2c1 = t
• COc1ccc2nc(-c3ccc(N4CCNCC4)nc3)cn2c1 = f

Turning now to a further record.
Input: pIC50 >= 6 for `COc1ccc2nc(-c3cnc(N4CCOCC4)nc3)cn2c1` ?
Output: f

* * *

Measured IC50 (synthetic Aβ 1-40 (Homo sapiens, UniProt P05067))

// below: answered compounds
* COc1ccc2nc(-c3ccc(C(N)=O)nc3)cn2c1 [Example 16] | 2310 nM
* CNc1ccc(-c2cn3cc(O)ccc3n2)cn1 [Example 2] | 375 nM
* NC(=O)c1ccc(-c2cn3cc(O)ccc3n2)cn1 [Example 17] | 2790 nM
* O=C(OCCF)c1ccc2nc(-c3ccc(F)nc3)cn2c1 [Example 18] | 17900 nM
* CNc1ccc(-c2cn3cc(C(=O)OCCF)ccc3n2)cn1 [Example 22] | 469 nM
* CN(C)c1ccc(-c2cn3cc(C(=O)OCCF)ccc3n2)cn1 [Example 20] | 16600 nM
* CNc1ccc(-c2cn3cc(C(=O)OC)ccc3n2)cn1 [Example 21] | 960 nM

Continue with the next compound.
Input: Write down measured IC50 (synthetic Aβ 1-40 (Homo sapiens, UniProt P05067)) for this compound. COc1ccc2nc(-c3ccc(OC)nc3)cn2c1 [Example 5]
Output: 2840 nM

* * *

The following are reported IC50 results, target or system synthetic Aβ 1-40 (Homo sapiens).
Give the value; after it, write the unit.

Input: Quote synthetic Aβ 1-40 (Homo sapiens) IC50 for entry `COc1ccc2nc(-c3cnc(OC)c(Cl)c3)cn2c1` .
Output: 0.709 µM

Input: Find the measured IC50 of `COc1ccc2nc(-c3cnc(OC)c(F)c3)cn2c1` with synthetic Aβ 1-40 (Homo sapiens) as test system.
Output: 0.838 µM

Input: Answer with IC50 of `COC(=O)c1ccc2nc(-c3ccc(N(C)C)nc3)cn2c1` measured for synthetic Aβ 1-40 (Homo sapiens).
Output: 0.739 µM

Input: Please tell me the measured IC50 for `COc1ccc2nc(-c3ccc(N4CCN(C(=O)OC(C)(C)C)CC4)nc3)cn2c1` ; system: synthetic Aβ 1-40 (Homo sapiens).
Output: 1.36 µM
